System: SW-620 colon
Test: NCI tumour cell line growth inhibition, 48 h; in the data active = GI50 below about 0.43 µM; inactive = the rest
Your reply should match one of these outcome classes. active, inactive

Answered examples (5):
COC(=O)[C@]12CC[C@@H](C)[C@H](C)[C@@H]1C1=CC[C@@H]3[C@@]4(C)C(C=O)=C[C@@](C)(COC(=O)/C=C/c5ccccc5)[C@@H]4[C@H](O)C[C@@]3(C)[C@]1(C)CC2 | inactive
Nc1ncnc2c1ccn2[C@@H]1O[C@H]([C@H](O)c2ccc(Cl)c(F)c2)[C@@H](O)[C@H]1O | inactive
COc1ccc(N(C)c2nc(Cl)nc3cnn(C)c23)cc1 | active
COCc1c(-c2ccc(NC(=O)Nc3cc(C(F)(F)F)ccc3F)c(F)c2)c2c(N)ncnn2c1CN1CCOCC1 | inactive
C[C@@H](Oc1cc(-n2cnc3ccc(OC[C@@H](O)CO)cc32)sc1C(N)=O)c1ccccc1Cl | active

Outcome logged for O=C(/C=C/OC(=O)c1cccc(Cl)c1)c1ccc(Cl)cc1 in this assay:
inactive

What do you have for FC(F)(F)c1cc(Nc2ccc3cc(OCCCN4CCOCC4)ccc3n2)ccc1Cl ?
inactive

What do you have for COc1ccc2c(c1)C(=O)c1c-2c(Nc2cccc(C(C)=O)c2)nc2ccccc12 ?
inactive

What do you have for CSc1ccc(C(=O)/C=C/c2ccccc2Cl)cc1 ?
inactive

What do you have for COc1cccc2c1C(=O)c1c(O)c3c(c(O)c1C2=O)C[C@@](O)(C(=O)CO)CC3OC1CC(NCCCC(OC(C)=O)OC(C)=O)C(O)C(C)O1 (stereo partly specified) ?
active

====

Each item that follows carries a reported TGI.
Tested on: NCI-H460 lung
Experiment: NCI tumour cell line growth inhibition, 48 h

The following molecules have reported results that may help.
CCCCOC(=O)c1cc(C(=CCC[C@H]2CC[C@@]3(C)[C@@H](CC[C@@H]4[C@@H]3CC[C@]3(C)[C@@H](C(C)CCCC(C)C)CC[C@@H]43)C2)c2cc(Cl)c(O)c(C(=O)OCCCC)c2)cc(Cl)c1O (stereo partly drawn) | > 50 µM
CCOC(=O)C(=O)Nc1ccccc1C(C)C | > 100 µM

Quick one: TGI of COC(=O)C(/C(=N\NC(N)=S)C(=O)Nc1ccccc1[N+](=O)[O-])c1cnc2ccccc2n1 (stereo not drawn) ?
> 100 µM

What do you have for CC1C(c2ccccc2O)c2cc3c(cc2OC1N1CCOCC1)OCO3 (stereo not drawn) ?
49.2 µM

What do you have for CCCC(=O)NC(Nc1ccc(S(=O)(=O)Nc2ccc(OC)nn2)cc1)(C(F)(F)F)C(F)(F)F ?
> 100 µM

====

Each item that follows carries a reported GI50.
Test system: MDA-MB-231 breast
Assay: NCI tumour cell line growth inhibition, 48 h

The following compounds have reported results that may help.
C[C@@H](Oc1cc(-n2cnc3ccc(OC[C@@H](O)CO)cc32)sc1C(N)=O)c1ccccc1Cl | 0.416 µM
COc1cc(/C=C2\C[C@H]3[C@@H]4CC=C5C[C@@H](OC(C)=O)CC[C@]5(C)[C@H]4CC[C@]3(C)[C@H]2OC(C)=O)ccc1OCCN1CCCC1 | 9.01 µM
Cc1nccc2c3ccc(OCc4cn(-c5ccc(Cl)cc5)nn4)cc3n(CC(C)C)c12 | 4.69 µM

Quick one: GI50 of Cc1ccc(S(=O)(=O)Nc2ccc(-c3cc(-c4cccc(F)c4)c(C#N)c(N)n3)cc2)cc1 ?
1.95 µM

What do you have for COc1cc(/C=C/C(=O)c2c(C)nc3ccccc3c2C)ccc1OCCCN1CCN(C(=O)c2ccco2)CC1 ?
7.22 µM

====

Each item that follows carries a reported TGI.
Test system: SF-268 CNS
Assay: NCI tumour cell line growth inhibition, 48 h

The following compounds have reported results that may help.
CN(C)c1ccc(/C=C/c2cc(-c3ccccc3)[n+](C)n2-c2ccccc2)cc1 | 4.77 µM
C[CH2][Sn]([CH2]C)([O]C(=O)c1ccc(OC)c(OC)c1OC)[O]C(=O)c1ccc(OC)c(OC)c1OC | > 46.4 µM
O=C(O[C@H]1CCN2C[C@H]3C[C@H](CN4C(=O)CCC[C@H]34)[C@@H]2C1)c1ccc(O)cc1 | > 100 µM
CCN1CCC(O)(c2ccc(O)cc2)C(C(=O)c2ccc(O)cc2)C1 (centres undefined) | > 100 µM
COc1ccc(-c2cc(=O)c3c(O)cc(O)cc3o2)c(OC)c1OC | > 100 µM

Here is another compound to look at.
Quick one: TGI of Cc1ccc(N=C2C(c3ccccc3)=C(SC3=C(c4ccccc4)C(=Nc4ccc(C)cc4)c4ccccc43)c3ccccc32)cc1 ?
18.8 µM

====

Each item that follows carries a reported TGI.
System: ACHN renal
Test: NCI tumour cell line growth inhibition, 48 h

The following compounds have reported results that may help.
COc1c2c(cc3c1C(=O)Cc1ccc4c(c1CN(C)CC3)OCO4)OCO2 | > 100 µM
Cc1ccc(N2C(N)=C(C#N)C(C#N)(C#N)C2c2ccccc2)cc1 (stereo not drawn) | 28.2 µM
Cc1ccc(S(=O)(=O)Nc2ccc(-c3cc(-c4cccc(F)c4)c(C#N)c(N)n3)cc2)cc1 | 2.92 µM
O=C(/C=C/OC(=O)c1cccc(Cl)c1)c1ccc(Cl)cc1 | > 100 µM
COc1ccc(OC)c(/C=C/c2nc(SCc3ccccc3)n(-c3ccc(Cl)cc3)n2)c1 | > 100 µM
CCOC(=O)c1cc(C2CCN(Cc3ccccc3)C2=S)c(C(=O)C=[N+]=[N-])[nH]1 (stereo not drawn) | > 100 µM

Quick one: TGI of Cc1ccc(-c2cc(-c3ccco3)c(C#N)c(=O)n2C2OC(CO)C(O)C(O)C2O)cc1 (stereo not drawn) ?
> 100 µM

What do you have for CCCCCCCC(=O)[O][Hg][CH2]C1COC([CH2][Hg][O]C(=O)CCCCCCC)CO1 (stereo not drawn) ?
26.9 µM

====

Test system: MALME-3M melanoma
Experiment: NCI tumour cell line growth inhibition, 48 h; in the data active = GI50 below about 0.43 µM; inactive = the rest
Your reply should match one of these outcome classes. 1 = active, 0 = inactive

C=C1C(=O)O[C@H]2[C@H]1CC/C(COC(=O)NCCCCCCCCNC(=O)OC/C1=C/CC[C@@]3(C)O[C@H]3[C@H]3OC(=O)C(=C)[C@@H]3CC1)=C\CC[C@@]1(C)O[C@@H]21 | 1
C[CH2][Sn]([CH2]C)([O]C(=O)c1ccc(OC)c(OC)c1OC)[O]C(=O)c1ccc(OC)c(OC)c1OC | 0

Outcome logged for COC1=CC(=O)c2nc(Cl)ccc2C1=O in this assay:
0

What do you have for CN(C)CCOC(=O)Nc1nc2ccc(Sc3ccccc3)cc2[nH]1 ?
0

What do you have for Nc1ncnc2c1ccn2[C@@H]1O[C@H]([C@H](O)c2ccc(Cl)c(F)c2)[C@@H](O)[C@H]1O ?
0

What do you have for C#Cc1cccc(NC(=O)c2ccc(NC(=O)CCl)cc2)c1 ?
0

What do you have for O=C(/C=C/OC(=O)c1cccc(Cl)c1)c1ccc(Cl)cc1 ?
0

What do you have for COc1cc2c(cc1C)NC(=O)/C2=C\c1c[nH]c2ccccc12 ?
0

What do you have for Cc1ccc(S(=O)(=O)Nc2ccc(-c3cc(-c4cccc(F)c4)c(C#N)c(N)n3)cc2)cc1 ?
0

What do you have for CC1=C([Se]CC(OC(=O)[C@@H](CO)NC(=O)OC(C)(C)C)C(=O)NCCCCCC(=O)OCc2ccccc2)C(=O)c2ccccc2C1=O (stereo partly specified) ?
0

What do you have for CN(C)CCNC(=O)NC[C@H]1CC[C@@H]2[C@H](O1)c1cc(C(F)(F)F)ccc1N[C@H]2c1ccccc1 ?
0

====

System: SK-MEL-2 melanoma
Your reply should match one of these outcome classes. 1 (active), 0 (inactive)

Answered examples (5):
C[C@@H](Oc1cc(-n2cnc3ccc(OC[C@@H](O)CO)cc32)sc1C(N)=O)c1ccccc1Cl | 0
COc1ccc2c(c1)C(=O)c1c-2c(Nc2cccc(C(C)=O)c2)nc2ccccc12 | 0
C=C1C(=O)O[C@H]2[C@H]1CC/C(COC(=O)NCCCCCCCCNC(=O)OC/C1=C/CC[C@@]3(C)O[C@H]3[C@H]3OC(=O)C(=C)[C@@H]3CC1)=C\CC[C@@]1(C)O[C@@H]21 | 0
Cc1ccc(S(=O)(=O)Nc2ccc(-c3cc(-c4cccc(F)c4)c(C#N)c(N)n3)cc2)cc1 | 0
CCN(Cc1ccc(F)cc1)c1ccc(CO)c(OC)c1 | 0

Outcome logged for FC(F)(F)c1cc(Nc2ccc3cc(OCCCN4CCOCC4)ccc3n2)ccc1Cl in this assay:
0

What do you have for CCC[CH2][Pb]([Cl])([CH2]CCC)[CH2]CCC ?
1

What do you have for CC1(C)N=C(N)N=C(N)N1c1cccc(Br)c1 ?
0

What do you have for Cc1cc(=O)oc2cc(OC/C=C3\CCC(=O)O3)ccc12 ?
0

What do you have for COc1cc(/C=C2\C[C@H]3[C@@H]4CC=C5C[C@@H](OC(C)=O)CC[C@]5(C)[C@H]4CC[C@]3(C)[C@H]2OC(C)=O)ccc1OCCN1CCCC1 ?
0
